# target_of_assay: alpha subunit of the human FcεRI receptor (Homo sapiens, UniProt P12319)
# Construct: expressed in transfected cells; host or cells: Chinese hamster ovary (CHO FcεRI+) cells
# Sequence (P12319 26-257): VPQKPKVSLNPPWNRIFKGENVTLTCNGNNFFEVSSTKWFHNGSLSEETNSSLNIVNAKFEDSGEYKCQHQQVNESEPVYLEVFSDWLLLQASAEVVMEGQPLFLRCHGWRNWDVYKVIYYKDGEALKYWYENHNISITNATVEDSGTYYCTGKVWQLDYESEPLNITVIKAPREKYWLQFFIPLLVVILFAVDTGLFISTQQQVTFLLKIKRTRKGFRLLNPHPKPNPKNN
# experiment_notes: cell-based 125I-IgE binding inhibition assay on CHO FcεRI+ cells
# assay_context: inhibition of labeled IgE-binding to CHO FcεRI+ cells; read-out: Mean IC50(uM) ± S.D.
# Protocol: . The following day the cells were rinsed three times with PBS and then once with F12/DMEM. Peptide stocks were reconstituted in 100 mM Hepes buffered water, pH 7.2, at a concentration of 5 mg/mL. Working concentrations of the peptide were diluted in assay buffer (see below). […] IC50 values were determined for each peptide. […]
Where a SMILES comes first, the peptide text is derived from it. Bridges are numbered along the chain shown (N, C = ends).
recorded_metric: IC50 (µM)
Reply numerically in µM, unit not repeated.

Need IC50, item CC[C@H](C)[C@H](NC(=O)[C@@H]1CSSC[C@H](NC(=O)[C@H](CCCNC(=N)N)NC(=O)[C@@H]2CCCN2C(=O)[C@H](CC(C)C)NC(=O)[C@@H](N)CC(N)=O)C(=O)N[C@@H]([C@@H](C)O)C(=O)N[C@@H](CCC(=O)O)C(=O)NCC(=O)N2CCC[C@H]2C(=O)N[C@@H](Cc2c[nH]c3ccccc23)C(=O)NCC(=O)N[C@@H](Cc2c[nH]c3ccccc23)C(=O)N[C@@H](C(C)C)C(=O)N1)C(=O)O [IGE075, NLPRCTEGPWGWVCI] (H-NLPRCTEGPWGWVCI-OH; disulfide 5-14; N-terminus and C-terminus assumed) 1.4

Need IC50, item CSCC[C@H](NC(=O)[C@@H]1CSSC[C@H](NC(=O)[C@H](CCCNC(=N)N)NC(=O)[C@@H]2CCCN2C(=O)[C@H](CC(C)C)NC(=O)[C@@H](N)CC(N)=O)C(=O)N[C@@H]([C@@H](C)O)C(=O)N[C@@H](CCC(=O)O)C(=O)NCC(=O)N2CCC[C@H]2C(=O)N[C@@H](Cc2c[nH]c3ccccc23)C(=O)NCC(=O)N[C@@H](Cc2c[nH]c3ccccc23)C(=O)N[C@@H](C(C)C)C(=O)N1)C(=O)O [IGE062, NLPRCTEGPWGWVCM] (H-NLPRCTEGPWGWVCM-OH; disulfide 5-14; N-terminus and C-terminus assumed) 1

Need IC50, item CSCC[C@H](NC(=O)[C@@H]1CSSC[C@H](NC(=O)[C@H](CCCNC(=N)N)NC(=O)[C@@H]2CCCN2C(=O)[C@H](CC(C)C)NC(=O)[C@H](CC(N)=O)NC(C)=O)C(=O)N[C@@H]([C@@H](C)O)C(=O)N[C@@H](CCC(=O)O)C(=O)NCC(=O)N2CCC[C@H]2C(=O)N[C@@H](Cc2c[nH]c3ccccc23)C(=O)NCC(=O)N[C@@H](Cc2c[nH]c3ccccc23)C(=O)N[C@@H](C(C)C)C(=O)N1)C(=O)O [IGE063, Ac-NLPRCTEGPWGWVCM] (Ac-NLPRCTEGPWGWVCM-OH; disulfide 5-14) 1.8

----------
# experiment_notes: 2D NMR structural score versus reference peptide
# Assay type: physicochemical
# Parameters: key: +++ indicates the peptide is structured similarly to IGE063 (SEQ ID NO:49); + indicates the peptide is structured similarly to IGE063 (SEQ ID NO:49), but is less stable; −/+ indicates the peptide has some elements of stable structure, but the conformation differs from the reference structure (e.g., a different turn type is evident); − indicates the peptide is predominantly unstructured in aqueous solution
# assay_context: reference IGE063
Where a SMILES comes first, the peptide text is derived from it. Bridges are numbered along the chain shown (N, C = ends). [ ]: non-standard residue; d: D form. Pip = O=C(O)[C@@H]1CCCCN1
recorded_metric: Struct. Score

{"columns": ["compound", "recorded_metric", "observed_value"],
 "data": [
  ["CSCC[C@H](NC(=O)[C@@H]1CSSC[C@H](NC(=O)[C@H](CCCNC(=N)N)NC(=O)[C@@H]2CCCN2C(=O)[C@H](CC(C)C)NC(=O)[C@H](CC(N)=O)NC(C)=O)C(=O)N[C@@H]([C@@H](C)O)C(=O)N[C@@H](CCC(=O)O)C(=O)NCC(=O)N2CCC[C@H]2C(=O)N[C@@H](Cc2c[nH]c3ccccc23)C(=O)N[C@H](C)C(=O)N[C@@H](Cc2c[nH]c3ccccc23)C(=O)N[C@@H](C(C)C)C(=O)N1)C(=O)O [IGE105, Ac-NLPRCTEGPWaWVCM] (Ac-NLPRCTEGPW[dA]WVCM-OH; disulfide 5-14; C-terminus assumed)", "Struct. Score", "+++"],
  ["CSCC[C@H](NC(=O)[C@@H]1CSSC[C@H](NC(=O)[C@H](CCCNC(=N)N)NC(=O)[C@@H]2CCCN2C(=O)[C@H](CC(C)C)NC(=O)[C@H](CC(N)=O)NC(C)=O)C(=O)N[C@@H]([C@@H](C)O)C(=O)N[C@@H](CCC(=O)O)C(=O)NCC(=O)N2CCCC[C@H]2C(=O)N[C@@H](Cc2c[nH]c3ccccc23)C(=O)NCC(=O)N[C@@H](Cc2c[nH]c3ccccc23)C(=O)N[C@@H](C(C)C)C(=O)N1)C(=O)O [IGE095, Ac-NLPRCTEG(Pip)WGWVCM] (Ac-NLPRCTEG[Pip]WGWVCM-OH; disulfide 5-14; C-terminus assumed)", "Struct. Score", "+++"]
]}

----------
Give Relative (IC50) (fold weaker) for every item shown.
# target_of_assay: FcεRI-IgG (Homo sapiens, UniProt P12319)
# Construct: consisting of the extracellular domain of FcεR Ifused to the Fc domain of IgG; host or cells: CHO cells
# experiment_notes: g3 phage competitive binding ELISA (competition with soluble FcεRI-IgG)
# assay_context: truncated peptides on g3 phage, relative to g3c.42; NDB = no detectable binding
# Experimental: A phage based competitive binding ELISA for immobilized FcεRI-IgG in the presence of titrated amounts of soluble FcεRI-IgG was performed on each of the clones. Peptide sequences from g8p-fused phage clones that specifically bound FcεRI-IgG were transferred onto a g3p-display format for monovalent phage display (Bass et al., Proteins 8, 309-314 (1990); Lowman et al., Biochemistry 30, 10832-10838 (1991)). […]
Reply numerically in X, unit not repeated.

Need Relative (IC50) (fold weaker), item NLPRCTEGPWGWVCM [g3c.34] 3

Need Relative (IC50) (fold weaker), item NLPRCTEGPWGWVCMA [g3c.31] 1

Need Relative (IC50) (fold weaker), item NLPRCTEGPWGWVCMAAD [g3c.42] 1

Need Relative (IC50) (fold weaker), item LPRCTEGPWGWVCMAAD [g3c.1] 1

Need Relative (IC50) (fold weaker), item NLPRCTEGPWGWVCMAA [g3c.29] 1

----------
# experiment_notes: 2D NMR structural score versus reference peptide
# Assay type: physicochemical
# Design: key: +++ indicates the peptide is structured similarly to IGE063 (SEQ ID NO:49); + indicates the peptide is structured similarly to IGE063 (SEQ ID NO:49), but is less stable; −/+ indicates the peptide has some elements of stable structure, but the conformation differs from the reference structure (e.g., a different turn type is evident); − indicates the peptide is predominantly unstructured in aqueous solution
# assay_context: reference IGE063
# Procedure: Peptides were evaluated by 2D NMR spectroscopy to assess the effect of substitutions on the three-dimensional structure of the peptide analog. All peptides with a structural score indicated in Table 5 were analyzed by 2D NMR spectroscopy; backbone ^1H resonances were assigned and ^3JHN-Hα coupling constants were measured and compared to the reference peptide (IGE063, SEQ ID NO:49; see Example 5). […] A structural score was assigned to peptides analyzed by 2D NMR spectroscopy. […]
Where a SMILES comes first, the peptide text is derived from it. Bridges are numbered along the chain shown (N, C = ends). [ ]: non-standard residue; d: D form. 2Nal = N[C@@H](Cc1ccc2ccccc2c1)C(=O)O; Sar = CNCC(=O)O

{"columns": ["compound", "Struct. Score"],
 "data": [
  ["CSCC[C@H](NC(=O)[C@@H]1CSSC[C@H](NC(=O)[C@H](CCCNC(=N)N)NC(=O)[C@@H]2CCCN2C(=O)[C@H](CC(C)C)NC(=O)[C@H](CC(N)=O)NC(C)=O)C(=O)N[C@@H]([C@@H](C)O)C(=O)N[C@@H](CCC(=O)O)C(=O)NCC(=O)N(C)CC(=O)N[C@@H](Cc2c[nH]c3ccccc23)C(=O)NCC(=O)N[C@@H](Cc2c[nH]c3ccccc23)C(=O)N[C@@H](C(C)C)C(=O)N1)C(=O)O [IGE097, Ac-NLPRCTEG(N-Me-G)WGWVCM] (Ac-NLPRCTEG[Sar]WGWVCM-OH; disulfide 5-14; C-terminus assumed)", "−/+"],
  ["CSCC[C@H](NC(=O)[C@@H]1CSSC[C@H](NC(=O)[C@H](CCCNC(=N)N)NC(=O)[C@@H]2CCCN2C(=O)[C@H](CC(C)C)NC(=O)[C@H](CC(N)=O)NC(C)=O)C(=O)N[C@@H]([C@@H](C)O)C(=O)N[C@@H](CCC(=O)O)C(=O)NCC(=O)N2CCC[C@H]2C(=O)N[C@@H](Cc2ccc3ccccc3c2)C(=O)NCC(=O)N[C@@H](Cc2c[nH]c3ccccc23)C(=O)N[C@@H](C(C)C)C(=O)N1)C(=O)O [IGE103, Ac-NLPRCTEGP(npA)GWVCM] (Ac-NLPRCTEGP[2Nal]GWVCM-OH; disulfide 5-14; C-terminus assumed)", "+++"],
  ["CSCC[C@H](NC(=O)[C@@H]1CSSC[C@H](NC(=O)[C@H](CCCNC(=N)N)NC(=O)[C@@H]2CCCN2C(=O)[C@H](CC(C)C)NC(=O)[C@H](CC(N)=O)NC(C)=O)C(=O)N[C@@H]([C@@H](C)O)C(=O)N[C@@H](CCC(=O)O)C(=O)NCC(=O)N2CCC[C@H]2C(=O)N[C@@H](Cc2c[nH]c3ccccc23)C(=O)NCC(=O)N[C@@H](Cc2c[nH]c3ccccc23)C(=O)N[C@@H](C(C)C)C(=O)N1)C(=O)O [IGE063, Ac-NLPRCTEGPWGWVCM] (Ac-NLPRCTEGPWGWVCM-OH; disulfide 5-14)", "+++"],
  ["CSCC[C@H](NC(=O)[C@@H]1CSSC[C@H](NC(=O)[C@H](CCCNC(=N)N)NC(=O)[C@@H]2CCCN2C(=O)[C@H](CC(C)C)NC(=O)[C@@H](N)CC(N)=O)C(=O)N[C@@H]([C@@H](C)O)C(=O)N[C@@H](CCC(=O)O)C(=O)NCC(=O)N2CCC[C@H]2C(=O)N[C@@H](Cc2c[nH]c3ccccc23)C(=O)NCC(=O)N[C@@H](Cc2c[nH]c3ccccc23)C(=O)N[C@@H](C(C)C)C(=O)N1)C(=O)O [IGE062, NLPRCTEGPWGWVCM] (H-NLPRCTEGPWGWVCM-OH; disulfide 5-14; N-terminus and C-terminus assumed)", "+++"]
]}
